Data origin, for the record: ChEMBL document CHEMBL3603734

experiment: Cytotoxicity against MEF assessed as inhibition of cell proliferation at 10 umol/L after 72 hrs by MTT assay relative to control; format: cell-based; settings: mouse, MEF cells
parameter measured: inhibition at 72 h, 10 µM (%)

INSERT INTO results (molecule, recorded_result) VALUES
  ('Cc1ncc([N+](=O)[O-])n1CC(O)CNC1CCN(c2c(F)cc3c(=O)c(C(=O)O)cn(C4CC4)c3c2Cl)C1 (stereo unspecified)', 22.7);

----------
Recorded MIC for the following compounds
test system: Candida albicans; test: Antifungal activity against Candida albicans ATCC 10231 after 24 hrs by microbroth dilution method; assay type: functional; conditions: ATCC 10231, 24 h
parameter measured: MIC (mg/L)

INSERT INTO measurements (compound, unit_descriptor, recorded_result) VALUES
  ('Cc1nc(N2CCCC2)c([N+](=O)[O-])n1CC(O)CN1CCN(c2cc3c(cc2F)c(=O)c(C(=O)O)cn3C2CC2)CC1 (stereo unspecified)', 'mg/L', 64),
  ('Cc1nc(N2CCOCC2)c([N+](=O)[O-])n1CC(O)CN1CCN(c2cc3c(cc2F)c(=O)c(C(=O)O)cn3C2CC2)CC1 (stereo unspecified)', 'mg/L', 32),
  ('Cc1ncc([N+](=O)[O-])n1CC(O)CNC1CCN(c2c(F)cc3c(=O)c(C(=O)O)cn(C4CC4)c3c2Cl)C1 (stereo unspecified)', 'mg/L', 16),
  ('Cc1nc(N2CCCC2)c([N+](=O)[O-])n1CC(O)CNC1CCN(c2c(F)cc3c(=O)c(C(=O)O)cn(C4CC4)c3c2Cl)C1 (stereo unspecified)', 'mg/L', 2),
  ('Cc1ncc([N+](=O)[O-])n1CC(O)CN1CCN(c2cc3c(cc2F)c(=O)c(C(=O)O)cn3C2CC2)CC1 (stereo unspecified)', 'mg/L', 128),
  ('Cc1nc(N2CCOCC2)c([N+](=O)[O-])n1CC(O)CNC1CCN(c2c(F)cc3c(=O)c(C(=O)O)cn(C4CC4)c3c2Cl)C1 (stereo unspecified)', 'mg/L', 2),
  ('OC(Cn1cncn1)(Cn1cncn1)c1ccc(F)cc1F', 'mg/L', 1),
  ('CCn1cc(C(=O)O)c(=O)c2cc(F)c(N3CCN(CC(O)Cn4c(C)nc(N5CCOCC5)c4[N+](=O)[O-])CC3)cc21 (stereo unspecified)', 'mg/L', 16),
  ('CCn1cc(C(=O)O)c(=O)c2cc(F)c(N3CCN(CC(O)Cn4c(C)nc(N5CCCC5)c4[N+](=O)[O-])CC3)cc21 (stereo unspecified)', 'mg/L', 32),
  ('O=C(O)c1cn(C2CC2)c2c(Cl)c(NC3CCN(CC4CO4)C3)c(F)cc2c1=O (stereo unspecified)', 'mg/L', 2),
  ('CCn1cc(C(=O)O)c(=O)c2cc(F)c(N3CCN(CC(O)Cn4c(C)nc(N5CCCCC5)c4[N+](=O)[O-])CC3)cc21 (stereo unspecified)', 'mg/L', 32),
  ('Cc1nc(N2CCCCC2)c([N+](=O)[O-])n1CC(O)CNC1CCN(c2c(F)cc3c(=O)c(C(=O)O)cn(C4CC4)c3c2Cl)C1 (stereo unspecified)', 'mg/L', 4),
  ('CCn1cc(C(=O)O)c(=O)c2cc(F)c(N3CCN(CC4CO4)CC3)cc21 (stereo unspecified)', 'mg/L', 4),
  ('Cc1nc(N2CCCCC2)c([N+](=O)[O-])n1CC(O)CN1CCN(c2cc3c(cc2F)c(=O)c(C(=O)O)cn3C2CC2)CC1 (stereo unspecified)', 'mg/L', 64),
  ('O=C(O)c1cn(C2CC2)c2cc(N3CCN(CC4CO4)CC3)c(F)cc2c1=O (stereo unspecified)', 'mg/L', 2),
  ('CCn1cc(C(=O)O)c(=O)c2cc(F)c(N3CCN(CC(O)Cn4c([N+](=O)[O-])cnc4C)CC3)cc21 (stereo unspecified)', 'mg/L', 128);
